- system-tested: GRASP, Q7Z6J2
- Sequence (Q7Z6J2 96-193): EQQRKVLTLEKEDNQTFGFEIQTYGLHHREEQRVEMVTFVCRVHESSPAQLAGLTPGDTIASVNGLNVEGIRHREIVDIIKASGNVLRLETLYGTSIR
- assay-details: holdup assay
- Design: key: below the threshold = too weak to quantify, mostly under pKd 3.1 to 4
- measurement-setup: plain residues with an end cap or a label only (N-terminal biotin on a linker: ado-ado)
Reported pKd values follow for various binders
measured-property: pKd

binder: ADEMICITTL [CACNA1D, Q01668]
measured-property: pKd
endpoint-result: 5.41

binder: SRPHTNETSL [MCC, P23508]
measured-property: pKd
endpoint-result: 3.96

binder: KLQNPNQSVV [TYRP1, P17643]
measured-property: pKd
endpoint-result: 4

binder: FLVTEFNVML [DFNB31, Q9P202]
measured-property: pKd
endpoint-result: 3.72

binder: TFSRRPKTRV [CD226, Q15762]
measured-property: pKd
endpoint-result: 3.98

binder: EAVTVESTSL [SLC22A11, Q9NSA0]
measured-property: pKd
endpoint-result: 5.36

binder: PLPPEEESWV [GAS2L2, Q8NHY3]
measured-property: pKd
endpoint-result: 4.23

binder: DSEEELPTRL [GRK6, P43250]
measured-property: pKd
endpoint-result: 4.16
